Exercise: for every item that follows, state its recorded HR.
test system: Felis catus; experiment: Change in heart rate was detected in anaesthetised cats on administration of the compound; format: functional; also: test concentration or dose not given here
Numbers only, in delta %.

Worked examples, 3 compounds total:
COc1ccc2c3c1OC1C[C@@H](O)C=C[C@@]31CC[N+](C)(C)C2 (some centres not stated); -5
O=C(CCC1CCN(Cc2ccccc2)CC1)c1ccc2c(c1)NCCCC2; -5
COc1cc2c(cc1OC)C(=O)C(C(O)C1CC[N+](C)(Cc3ccccc3)CC1)C2 (configuration not stated); -12

Report HR for every entry below.
1. COc1cc2c(cc1OC)C(=O)C(CC1CC[N+](C)(Cc3ccccc3)CC1)C2 (configuration not stated)
2. C[N+]1(Cc2ccccc2)CCC(CCC(=O)c2ccc3c(c2)NCCCC3)CC1 (configuration not stated)

output:
11
4

Give one value of HR per listed compound.
1. CC1=C[C@H]2Cc3[nH]c(=O)ccc3[C@]3(C1)NCCC[C@H]23
2. COc1cc2c(cc1OC)C(=O)C(CC1CCN(Cc3ccccc3)CC1)C2 (configuration not stated)

output:
1: -8; 2: -12

====

target: Acetylcholinesterase (Homo sapiens); experiment: In vitro inhibition of human recombinant AChE.
Sequence (P22303 whole entry): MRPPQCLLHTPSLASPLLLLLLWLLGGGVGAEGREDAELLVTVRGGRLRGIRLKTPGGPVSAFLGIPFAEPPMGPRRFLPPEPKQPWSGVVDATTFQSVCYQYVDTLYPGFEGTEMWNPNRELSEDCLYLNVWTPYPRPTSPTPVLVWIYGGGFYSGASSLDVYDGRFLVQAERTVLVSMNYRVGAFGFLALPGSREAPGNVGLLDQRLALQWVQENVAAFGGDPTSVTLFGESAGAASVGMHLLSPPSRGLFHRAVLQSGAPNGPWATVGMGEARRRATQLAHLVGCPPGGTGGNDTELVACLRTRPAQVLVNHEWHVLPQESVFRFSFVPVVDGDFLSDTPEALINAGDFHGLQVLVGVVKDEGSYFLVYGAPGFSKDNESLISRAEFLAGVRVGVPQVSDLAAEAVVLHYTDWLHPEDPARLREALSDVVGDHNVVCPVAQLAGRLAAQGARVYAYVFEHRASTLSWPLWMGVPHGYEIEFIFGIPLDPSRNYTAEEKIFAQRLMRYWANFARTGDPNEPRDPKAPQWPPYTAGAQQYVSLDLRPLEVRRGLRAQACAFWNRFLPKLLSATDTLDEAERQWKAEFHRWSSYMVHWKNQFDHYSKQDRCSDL
outcome_measure: pIC50
One number for each entry, as −log10 of the molar value.

input: Give a short answer stating reported pIC50 for CC1=C[C@H]2Cc3[nH]c(=O)ccc3[C@]3(C1)NCCC[C@H]23 [HUPERZINE B] .
output: 7.52

====

IC50 tested on UniProtKB P22303: recorded values
One number for each entry, in µM.

Here's what some known entries look like.
COc1ccc2cc(C(=O)CCC3CC[N+](C)(Cc4ccccc4)CC3)ccc2c1 (stereo not drawn); 0.05
C[N+]1(Cc2ccccc2)CCC(CCC(=O)c2ccc3c(c2)OCO3)CC1 (stereo not drawn); 0.24

Continue with the next molecule.
input: Please indicate recorded IC50 of C[N+]1(Cc2ccccc2)CCC(CCC(=O)c2ccc3c(c2)OCCO3)CC1 (stereo not drawn) measured with UniProtKB P22303.
output: 0.1

====

What follows is a record of IC50 for UniProtKB P22303.

Observe how each entry below is paired with its result.
CC1=CC2Cc3[nH]c(=O)ccc3C3(C1)C2CCCN3C (stereo not drawn); > 100000 nM
COc1ccc2c3c1OC1C[C@@H](O)C=C[C@@]31CC[N+](C)(C)C2 (stereo partly drawn); ~500 nM

# input for lookup
input: Report the value of IC50 obtained on UniProtKB P22303 for C[N+]1(Cc2ccccc2)CCC(CCC(=O)c2ccc3c(c2)NCCCC3)CC1 (stereo not drawn) .
output: < 500 nM
